Target: UniProt:Q9NP59
Experiment: T47D cell-based ferroportin internalization assay in presence of 0.5% mouse serum albumin (MSA)
Conditions: T47D cells
measure-name: IC50

1. CCCCCCCCCCCCCCCC(=O)NCCCCCC(=O)NCCCC[C@H](NC(=O)C[C@H](Cc1ccccc1)NC(=O)[C@H]1CCCC=CCCC[C@@H](NC(=O)CC(C)C)C(=O)N[C@@H]([C@@H](C)O)C(=O)N[C@@H](Cc2c[nH]cn2)C(=O)N[C@@H](C(c2ccccc2)c2ccccc2)C(=O)N2CCC[C@H]2C(=O)N[C@@H](C)C(=O)N[C@@H]([C@@H](C)CC)C(=O)N1)C(=O)N[C@H](CCCCN)C(N)=O	> 0.5 µM
2. CCCCCCCCCCCCCCCC(=O)NCCCCCC(=O)NCCCC[C@H](NC(=O)C[C@H](Cc1ccccc1)NC(=O)[C@@H]1CCC=CCC[C@H](NC(=O)CC(C)C)C(=O)N[C@@H]([C@@H](C)O)C(=O)N[C@@H](Cc2c[nH]cn2)C(=O)N[C@@H](C(c2ccccc2)c2ccccc2)C(=O)N2CCC[C@H]2C(=O)N(C)[C@@H](C)C(=O)N[C@@H]([C@@H](C)CC)C(=O)N1)C(=O)N[C@H](CCCCN)C(N)=O	0.01 to 0.1 µM

# evaluate next
Record CCCCCCCCCCCCCCCC(=O)NCCCCCC(=O)NCCCC[C@@H]1NC(=O)[C@H](C)NC(=O)[C@@H]2CCCN2C(=O)[C@H](C(c2ccccc2)c2ccccc2)NC(=O)[C@H](Cc2c[nH]cn2)NC(=O)[C@H]([C@@H](C)O)NC(=O)[C@@H](NC(=O)CC(C)C)CCC=CCC[C@@H](C(=O)N[C@H](CC(=O)N[C@H](CCCCN)C(N)=O)Cc2ccccc2)NC1=O (single isomer, unassigned) : what is its IC50 with UniProt:Q9NP59?
0.1 to 0.5 µM

---

Target: human ferroportin (SLC40A1) (Homo sapiens)
Sequence (Q9NP59 whole entry): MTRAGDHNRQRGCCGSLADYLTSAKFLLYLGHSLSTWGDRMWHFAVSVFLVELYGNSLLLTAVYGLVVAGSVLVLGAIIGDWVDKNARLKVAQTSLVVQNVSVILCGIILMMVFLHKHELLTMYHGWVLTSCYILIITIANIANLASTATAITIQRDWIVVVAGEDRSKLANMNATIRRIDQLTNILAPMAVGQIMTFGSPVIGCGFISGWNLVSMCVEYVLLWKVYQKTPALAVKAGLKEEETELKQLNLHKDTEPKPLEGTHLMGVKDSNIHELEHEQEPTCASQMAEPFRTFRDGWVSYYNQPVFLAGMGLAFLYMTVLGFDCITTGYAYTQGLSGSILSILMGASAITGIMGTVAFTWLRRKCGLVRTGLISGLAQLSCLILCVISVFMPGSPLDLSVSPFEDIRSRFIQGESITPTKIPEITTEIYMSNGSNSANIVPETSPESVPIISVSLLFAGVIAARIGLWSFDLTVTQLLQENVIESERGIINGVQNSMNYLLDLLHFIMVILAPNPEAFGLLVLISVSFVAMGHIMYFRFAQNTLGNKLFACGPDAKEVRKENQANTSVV
Assay: FPN activity assay: internalization/degradation of ferroportin-GFP in stably transfected HEK293 cells (decrease in GFP fluorescence)
Details: compound incubated at least 18 hours
Numbered stars: 1 amine (or outer) side, 2 acyl side, 3 side chain; on linkers, the order of the positions; unused ones are H or OH. Bridge positions count the residues as written; N and C are the ends. Square brackets hold non-standard residues; d marks the D form. Side chains are listed from the residue outwards. Peptide text beside a SMILES is read from it. * marks the point of attachment. Dip = N[C@H](C(=O)O)C(c1ccccc1)c1ccccc1; Hag = O=C([C@H](CCC=[*:3])N[*:1])[*:2]; Palmitoyl = CCCCCCCCCCCCCCCC(=O)*; β3hF = N[C@H](CC(=O)O)Cc1ccccc1; Isovaleryl = CC(C)CC(=O)*; Ahx = NCCCCCC(=O)O
Parameter: IC50. Scope: all listed entries.

1. CCCCCCCCCCCCCCCC(=O)NCCCCCC(=O)NCCCC[C@H](NC(=O)C[C@H](Cc1ccccc1)NC(=O)[C@@H]1CCC=CCC[C@H](NC(=O)CC(C)C)C(=O)N[C@@H]([C@@H](C)O)C(=O)N[C@@H](Cc2c[nH]cn2)C(=O)N[C@@H](C(c2ccccc2)c2ccccc2)C(=O)N2CCC[C@H]2C(=O)N[C@@H](C)C(=O)N[C@@H]([C@@H](C)CC)C(=O)N1)C(=O)N[C@@H](C)C(N)=O [Compd 48] (Isovaleryl-[Hag]TH[Dip]PAI[Hag][β3hF]K([Ahx-Palmitoyl])A-NH2; staple 1-8)	10 to 100 nM
2. CCCCCCCCCCCCCCCC(=O)NCCCCCC(=O)NCCCC[C@H](NC(=O)C[C@H](Cc1ccccc1)NC(=O)[C@@H]1CCC=CCC[C@H](NC(=O)CC(C)C)C(=O)N[C@@H]([C@@H](C)O)C(=O)N[C@@H](Cc2c[nH]cn2)C(=O)N[C@@H](C(c2ccccc2)c2ccccc2)C(=O)N2CCC[C@H]2C(=O)N[C@@H](C)C(=O)N[C@@H]([C@@H](C)CC)C(=O)N1)C(=O)N[C@@H](CC(C)(C)C)C(N)=O	10 to 100 nM
3. CCCCCCCCCCCCCCCC(=O)NCCCCCC(=O)NCCCC[C@H](NC(=O)C[C@H](Cc1ccccc1)NC(=O)[C@@H]1CCCC=CCC[C@H](NC(=O)CC(C)C)C(=O)N[C@@H]([C@@H](C)O)C(=O)N[C@@H](Cc2c[nH]cn2)C(=O)N[C@@H](C(c2ccccc2)c2ccccc2)C(=O)N2CCC[C@H]2C(=O)N[C@@H](C)C(=O)N[C@@H]([C@@H](C)CC)C(=O)N1)C(=O)N[C@H](CCCCN)C(N)=O	10 to 100 nM
4. CCCCCCCCCCCCCCCC(=O)NCCCCCC(=O)NCCCC[C@H](NC(=O)C[C@H](Cc1ccccc1)NC(=O)[C@@H]1CCC=CCC[C@H](NC(=O)CC(C)C)C(=O)N[C@@H]([C@@H](C)O)C(=O)N[C@@H](Cc2c[nH]cn2)C(=O)N[C@@H](C(c2ccccc2)c2ccccc2)C(=O)N2CCC[C@H]2C(=O)N1)C(N)=O (single isomer, unassigned) [Compd 86]	> 500 nM

Give the measured IC50 of CCCCCCCCCCCCCCCC(=O)NCCCCCC(=O)NCCCC[C@H](NC(=O)C[C@H](Cc1ccccc1)NC(=O)[C@@H]1CCC=CCC[C@H](NC(=O)CC(C)C)C(=O)N[C@@H]([C@@H](C)O)C(=O)N[C@@H](Cc2c[nH]cn2)C(=O)N[C@@H](C(c2ccccc2)c2ccccc2)C(=O)N2CCC[C@H]2C(=O)N(C)[C@@H](C)C(=O)N[C@@H]([C@@H](C)CC)C(=O)N1)C(=O)N[C@H](CCCCN)C(N)=O .
10 to 100 nM

Sourced from patent US20240209053A1
